Consider the following compounds; for each one, report its remaining at 24 h, 0.03 mg/mL.
test name: Stability in phosphate buffers (HPLC)
Assay type: physicochemical
condition: phosphate buffer pH 7.4, 37 °C, 24 h
All answers are understood in %, so give the number only.

Query :: // lookup remaining at 24 h, 0.03 mg/mL for COc1ccc(C2C(F)C(=O)N2c2cc(OC)c(OC)c(OC)c2)cc1F (centres unmarked)
Result :: 87

Query :: Reported remaining at 24 h, 0.03 mg/mL, compound CCSc1ccc(C2N(c3cc(OC)c(OC)c(OC)c3)C(=O)C2(F)F)cc1 (centres unmarked) : ____
Result :: 50

---

Can you tell me remaining at 4 h, 1 mg/mL for the items I'm about to list?
test name: Stability under degradation conditions (HPLC)
Format: physicochemical
condition: stock solution in acetonitrile/water, heated, heat (60 °C)
Provide the measurement as a number trailed by its unit.

Query :: # input molecule: COc1ccc(C2C(F)C(=O)N2c2cc(OC)c(OC)c(OC)c2)cc1F (centres unmarked) [Compound 33] ; wanted: its remaining at 4 h, 1 mg/mL
Result :: 90%

Query :: I am curious: what remaining at 4 h, 1 mg/mL value has been reported for CCSc1ccc(C2N(c3cc(OC)c(OC)c(OC)c3)C(=O)C2(F)F)cc1 (centres unmarked) [Compound 39] ?
Result :: 82%
